Data provenance is ChEMBL document CHEMBL1961873.

- target-or-test-system: Ephrin type-A receptor 3 (Homo sapiens) (UniProt P29320);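 also: values are mean inhibition of EPHA3, from the GSK PKIS dataset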
- Sequence (P29320 whole entry): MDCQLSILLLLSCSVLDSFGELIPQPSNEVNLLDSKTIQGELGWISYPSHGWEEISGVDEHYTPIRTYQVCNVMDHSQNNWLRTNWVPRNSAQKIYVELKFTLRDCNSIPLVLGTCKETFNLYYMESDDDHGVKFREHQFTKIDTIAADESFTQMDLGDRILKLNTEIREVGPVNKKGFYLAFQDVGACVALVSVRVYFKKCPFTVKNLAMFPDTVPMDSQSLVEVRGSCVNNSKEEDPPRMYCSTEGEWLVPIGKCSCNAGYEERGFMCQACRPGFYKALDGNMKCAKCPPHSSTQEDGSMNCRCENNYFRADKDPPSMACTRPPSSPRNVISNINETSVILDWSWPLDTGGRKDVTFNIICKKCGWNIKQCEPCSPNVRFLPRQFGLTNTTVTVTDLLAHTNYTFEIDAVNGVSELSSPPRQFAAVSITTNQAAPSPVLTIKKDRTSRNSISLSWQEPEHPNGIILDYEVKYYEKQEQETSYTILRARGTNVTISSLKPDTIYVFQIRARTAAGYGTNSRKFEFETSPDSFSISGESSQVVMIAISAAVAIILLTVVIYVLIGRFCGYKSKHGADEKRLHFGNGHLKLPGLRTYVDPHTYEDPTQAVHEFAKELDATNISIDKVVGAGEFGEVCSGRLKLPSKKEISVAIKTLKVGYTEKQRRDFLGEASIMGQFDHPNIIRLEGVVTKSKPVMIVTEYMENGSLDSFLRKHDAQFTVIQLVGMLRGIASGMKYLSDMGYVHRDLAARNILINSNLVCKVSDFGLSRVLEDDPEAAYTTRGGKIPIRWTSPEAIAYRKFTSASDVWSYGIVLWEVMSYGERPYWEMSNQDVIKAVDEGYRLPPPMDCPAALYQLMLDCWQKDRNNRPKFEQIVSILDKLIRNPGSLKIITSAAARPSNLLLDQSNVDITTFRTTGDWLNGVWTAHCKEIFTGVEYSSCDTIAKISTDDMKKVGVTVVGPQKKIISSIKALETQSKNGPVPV
- conditions-used: at 0.1 µM
measurement-type: inhibition (%)
Please state the figure in %; there is no need to write the unit.

Completed entries (count: 4):
                                smiles_code  quantity_unit  result
0  CN(C)CCOc1ccc(-c2cc(-c3ccc4c(c3)CCC4=NO)c(-c3ccncc3)o2)cc1              %    0.49
1  Fc1ccc(-c2ncn(C3CCNCC3)c2-c2ccnc(Oc3ccc(Oc4ccccc4)cc3)n2)cc1              %    2.44
2  CCN(CC)Cc1ccc(Nc2nccc(-c3cnn4ncccc34)n2)cc1              %   -1.76
3       Fc1ccc(-c2c(-c3ccncc3)nc3n2CCS3)cc1              %    -0.6

Turning to the following molecule.
(Q) Field request: inhibition | item: "Fc1ccc(-c2ncn(C3CCNCC3)c2-c2ccnc(Oc3ccc(F)c(F)c3)n2)cc1"
(A) -1.56

---

- target-or-test-system: Tyrosine-protein kinase Blk (Homo sapiens) (UniProt P51451);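 also: reported value is the mean percent inhibition of BLK kinase activity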
- Sequence (P51451 2-505 limits assumed): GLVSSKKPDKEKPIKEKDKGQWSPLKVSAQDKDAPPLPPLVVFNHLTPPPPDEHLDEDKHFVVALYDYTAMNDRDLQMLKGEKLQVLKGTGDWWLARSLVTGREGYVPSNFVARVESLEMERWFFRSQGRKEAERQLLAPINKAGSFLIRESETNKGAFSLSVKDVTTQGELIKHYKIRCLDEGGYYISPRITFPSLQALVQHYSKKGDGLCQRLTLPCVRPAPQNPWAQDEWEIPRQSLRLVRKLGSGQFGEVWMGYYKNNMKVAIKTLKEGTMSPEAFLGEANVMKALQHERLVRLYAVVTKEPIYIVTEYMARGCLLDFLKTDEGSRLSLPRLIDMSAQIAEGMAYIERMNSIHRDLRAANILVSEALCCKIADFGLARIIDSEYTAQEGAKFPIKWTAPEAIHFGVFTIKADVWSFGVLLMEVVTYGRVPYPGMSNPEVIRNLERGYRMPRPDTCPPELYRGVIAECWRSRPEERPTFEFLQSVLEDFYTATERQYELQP
- conditions-used: at 0.1 µM
Parameter: inhibition. Scope: all listed entries.
Please state the figure in %; there is no need to write the unit.

Completed entries (count: 5):
>>> df
                                smiles_code  measurement_type  result
0  COc1cc(Nc2ncc3c(C)nc(-c4cccc(Oc5ccccc5)c4)n3n2)cc(OC)c1OC        inhibition    0.63
1  COc1cc2ncn(-c3cc(OCc4cccs4)c(C(N)=O)s3)c2cc1OC        inhibition     0.4
2    Clc1ccc(CNc2nccc(-c3cnn4ncccc34)n2)cc1        inhibition    1.31
3  NS(=O)(=O)c1ccc(N/N=C2\C(=O)Nc3ccc(-c4cnco4)cc32)cc1        inhibition   -1.23
4  O=C(Nc1n[nH]c2cc(-c3cc(F)ccc3F)ccc12)C1CC1        inhibition    1.38

(Q) Field request: inhibition | item: "O=C(Nc1n[nH]c2cc(-c3ccccc3)ccc12)C1CC1"
(A) 1.88

(Q) Field request: inhibition | item: "c1ccc(-c2n[nH]cc2-c2ccnc(-c3ccc(OCCN4CCOCC4)cc3)c2)nc1"
(A) 1.62

(Q) Field request: inhibition | item: "COc1cc(Nc2ncc3c(C)nc(-c4cccc(C(F)(F)F)c4)n3n2)cc(OC)c1OC"
(A) 3.39

(Q) Field request: inhibition | item: "O=C(Nc1n[nH]c2nc(-c3ccc(O)cc3)c(Br)cc12)C1CC1"
(A) 4.29

(Q) Field request: inhibition | item: "COc1cc(C)c(N(C)C(=O)CN(C)C)cc1Nc1nc(Nc2cccc(F)c2C(N)=O)c2cc[nH]c2n1"
(A) -3.28

---

Parameter: inhibition. Scope: all listed entries.
- target-or-test-system: Serine/threonine-protein kinase TBK1 (Homo sapiens) (UniProt Q9UHD2);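 also: values are the mean TBK1 inhibition, taken from the GSK PKIS screening data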
- Sequence (Q9UHD2 whole entry): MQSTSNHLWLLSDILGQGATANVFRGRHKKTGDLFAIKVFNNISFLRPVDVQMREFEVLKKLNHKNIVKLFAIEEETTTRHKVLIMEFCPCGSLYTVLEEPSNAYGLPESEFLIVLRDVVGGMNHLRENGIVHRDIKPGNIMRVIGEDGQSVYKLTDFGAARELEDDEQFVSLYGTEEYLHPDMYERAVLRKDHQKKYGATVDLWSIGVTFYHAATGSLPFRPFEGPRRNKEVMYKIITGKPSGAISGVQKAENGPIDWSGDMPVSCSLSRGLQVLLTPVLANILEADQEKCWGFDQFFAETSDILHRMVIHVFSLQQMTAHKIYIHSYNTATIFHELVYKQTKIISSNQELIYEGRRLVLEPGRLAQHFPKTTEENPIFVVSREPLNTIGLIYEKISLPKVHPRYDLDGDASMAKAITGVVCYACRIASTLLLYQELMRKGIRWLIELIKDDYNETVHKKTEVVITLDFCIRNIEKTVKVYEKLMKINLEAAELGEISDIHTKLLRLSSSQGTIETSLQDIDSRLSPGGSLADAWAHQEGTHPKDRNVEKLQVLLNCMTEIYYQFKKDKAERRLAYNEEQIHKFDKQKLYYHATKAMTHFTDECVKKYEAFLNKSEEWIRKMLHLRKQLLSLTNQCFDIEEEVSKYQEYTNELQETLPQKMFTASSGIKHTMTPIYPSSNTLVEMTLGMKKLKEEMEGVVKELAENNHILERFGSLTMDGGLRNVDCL
- conditions-used: at 0.1 µM
Please state the figure in %; there is no need to write the unit.

(Q) Field request: inhibition | item: "O=C(Nc1n[nH]c2nc(-c3ccco3)ccc12)C1CC1"
(A) 1.19

(Q) Field request: inhibition | item: "O=C(Nc1n[nH]c2nc(-c3ccc(O)cc3)c(Br)cc12)C1CC1"
(A) 4.12

(Q) Field request: inhibition | item: "Fc1ccc(-c2ncn(C3CCNCC3)c2-c2ccnc(Oc3ccc(F)c(F)c3)n2)cc1"
(A) 2.13
